FYI, the data here is from the supplement of paper PMC10567573.

B1: MNAT1 (parent)
chain: SLREYNDFLEEVEEIVFNLTNNVD

variants of: B1; assay: protein stability index of a GFP-peptide fusion (GPS, HEK-293T) (PSI 1-6); higher = more stable; conditions: c terminus: a fixed tail appended;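 further: lentivirally expressed fusions sorted by FACS into six bins by GFP to DsRed ratio, PSI derived from sequencing read proportions per bin multiplied by bin number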
Measured Endpoint: protein stability index
Answers are plain numbers.

Example entries begin here.
SLREYNDFLEEVEEIVFNLTNTVD [N22T] = 2.06
SLREYEDFLEEVEEIVFNLTNNVD [N6E] = 1.76
SLREYNDFMEEVEEIVFNLTNNVD [L9M] = 2.76

For each of the variants below, state protein stability index.
1. SLREYNDFVEEVEEIVFNLTNNVD [L9V]
2. SLREYNDFLEEVYEIVFNLTNNVD [E13Y]
3. SLIEYNDFLEEVEEIVFNLTNNVD [R3I]
4. SLREYNDFLEEVEEIQFNLTNNVD [V16Q]
5. SLREYFDFLEEVEEIVFNLTNNVD [N6F]
6. SLFEYNDFLEEVEEIVFNLTNNVD [R3F]

A.
1. 3.77
2. 1.63
3. 1.69
4. 3.99
5. 2.77
6. 2.6

For each of the variants below, state protein stability index.
1. SLREYNDFWEEVEEIVFNLTNNVD [L9W]
2. HLREYNDFLEEVEEIVFNLTNNVD [S1H]
3. SLREYNDFLEEVEEIVFNLTGNVD [N21G]
4. SLREYNDFLEEVEEIVFNLMNNVD [T20M]
5. SLREYNDFLEEVELIVFNLTNNVD [E14L]
6. SLREYNDFLEEVEEIVFNLTNMVD [N22M]

A.
[1.79, 2.24, 2.58, 1.86, 2.12, 1.44]
